- Test system: CAKI-1 renal
- measurement.description: NCI tumour cell line growth inhibition, 48 h
assay.metric: TGI (µM)
Answer in µM, number only, no unit symbol.

// known answers, use as guide
Cc1cc2nc(C=C(C(F)(F)F)C(F)(F)F)oc2cc1C	7.23
C=C1C(=O)O[C@H]2[C@H]1CC/C(COC(=O)NCCCCNC(=O)OC/C1=C/CC[C@@]3(C)O[C@H]3[C@H]3OC(=O)C(=C)[C@@H]3CC1)=C\CC[C@@]1(C)O[C@@H]21	23
COc1ccc(-c2nc3ccccn3c2/C=C/C(=O)c2cc(OC)c(OC)c(OC)c2)cc1OC	20.2
CO/C=C(/C(=O)OC)c1ccccc1COc1cccc(C(F)(F)F)c1	53.9

Okay, now this molecule:
Request the reported TGI associated with `COC1=C(OC)C(=O)C(Cc2c(C)nc3sccn23)=C(C)C1=O`
34.9
